Entries and their pEC50
# Tested on: Yellow fever virus
# test protocol: Antiviral activity against Yellow fever virus 17D Stamaril Pasteur J07B01 infected in hamster BHK21 cells assessed as inhibition of virus-induced cytopathogenicity after 3 to 4 days by MTT assay
# Assay type: functional, cell-based
# test conditions: Stamaril Pasteur J07B01, BHK-21
pEC50: −log10 of the molar value.

>  <compound>
O=[N+]([O-])c1ccc(-c2nc3cc4cccnc4cc3[nH]2)cc1

>  <pEC50>
< 4.00

$$$$
>  <compound>
[O-][n+]1n[nH]c2c(Cl)c3nccc(O)c3cc21

>  <pEC50>
< 4.00

$$$$

State recorded pEC50 with Yellow fever virus, entry "Clc1c2ncccc2cc2nc(-c3ccccc3)[nH]c12" , no comment.
< 4.46

Given "N#CCn1nnc2c(Cl)c3ncccc3cc21" , report its pEC50 on Yellow fever virus.
< 4.00

Provide measured pEC50 on Yellow fever virus for "[O-][n+]1n[nH]c2c(Cl)c3ncccc3cc21" please.
< 4.00

Please respond with reported pEC50 (system Yellow fever virus) for "Clc1ccc(-c2nc3cc4cccnc4cc3[nH]2)cc1Cl" .
< 4.00

----------
# test protocol: Antiviral activity against Bovine viral diarrhea virus 1-NADL infected in MDBK cells assessed as inhibition of virus-induced cytopathogenicity after 3 to 4 days by MTT assay
# Format: functional, cell-based
# test conditions: Bovine viral diarrhea virus isolates and strains
test readout: pEC50
Scale note: pEC50 = -log10(concentration in M).

>  <compound>
CCOC(=O)C(C)c1nc2cc3cccnc3c(Cl)c2[nH]c1=O (stereo unspecified)

>  <pEC50>
4.72

$$$$
>  <compound>
C[C@@]1(O)[C@H](O)[C@@H](CO)O[C@H]1n1cnc2c(=O)[nH]c(N)nc21

>  <pEC50>
5.96

$$$$

Return the recorded pEC50 value; entry: "Clc1c2ncccc2cc2ncc(-c3ccccc3)nc12"
4.74

Give me measured pEC50, please, for this compound: "O=[N+]([O-])c1ccc(-c2nc3cc4cccnc4c(Cl)c3[nH]2)cc1"
5.92

Look up and state reported pEC50 for "O=[N+]([O-])c1ccc(-c2nc3cc4cccnc4cc3[nH]2)cc1"
4.70

----------
Examples of molecules with documented pEC50 follow.
# Tested on: Yellow fever virus
# test protocol: Antiviral activity against Yellow fever virus 17D Stamaril Pasteur J07B01 infected in hamster BHK21 cells assessed as inhibition of virus-induced cytopathogenicity after 3 to 4 days by MTT assay
# Format: functional, cell-based
# test conditions: Stamaril Pasteur J07B01, BHK-21
pEC50: −log10 of the molar value.

>  <line notation>
c1cnc2cc3nccnc3cc2c1

>  <pEC50>
< 4.00

$$$$

Provide measured pEC50 value, entry: "O=C(CCl)Cn1nnc2c(Cl)c3ncccc3cc21"
< 4.07

For the molecule "O=c1[nH]c2cc3cccnc3c(Cl)c2nc1-c1ccccc1" , give its measured pEC50 value.
< 4.00

Find the measured pEC50 of "CC(=O)n1nnc2c(Cl)c3ncccc3cc21" and report it.
< 4.14

State its pEC50: "O=c1[nH]c2cc3c(O)ccnc3c(Cl)c2nc1-c1ccccc1"
< 4.00

Consider the molecule "CC(=O)Nc1ccc(-c2nc3cc4cccnc4c(Cl)c3[nH]2)cc1" and give its recorded pEC50.
< 4.00

----------
# System: Human orthopneumovirus
# test protocol: Antiviral activity against Human respiratory syncytial virus A2 infected in african green monkey Vero 76 cells assessed as reduction of virus-induced plaque formation after 5 days using crystal violet staining
# Format: functional, organism-based
# test conditions: 120 h
In this section, each of the compounds is paired with its reported EC50.

>  <compound>
CC(=O)Nc1ccc(-c2nc3cc4cccnc4c(Cl)c3[nH]2)cc1

>  <EC50>
> 100 µM

$$$$
>  <compound>
O=c1[nH]c2c(Cl)c3ncccc3cc2nc1-c1ccccc1

>  <EC50>
> 100 µM

$$$$
>  <compound>
CC(=O)n1nnc2c(Cl)c3ncccc3cc21

>  <EC50>
> 100 µM

$$$$
>  <compound>
Oc1ccnc2c(Cl)c3nccnc3cc12

>  <EC50>
> 90 µM

$$$$
>  <compound>
O=c1[nH]c2cc3cccnc3c(Cl)c2nc1-c1ccccc1

>  <EC50>
12 µM

$$$$

Provide EC50 value for the following compound: CCOC(=O)C(C)c1nc2c(Cl)c3ncccc3cc2[nH]c1=O (stereo not given)
62 µM

Give EC50 for the following compound: "Clc1ccc(-c2nc3cc4cccnc4cc3[nH]2)cc1Cl"
> 100 µM

Give the reported EC50 for this compound. "c1ccc(-c2ccc(-c3nc4cc5cccnc5cc4[nH]3)cc2)cc1"
> 80 µM

Indicate its recorded EC50; the compound in question is "O=[N+]([O-])c1c2cccnc2c(Cl)c2[nH]n[n+]([O-])c12"
> 100 µM

Answer with the recorded EC50 of "Clc1c2ncccc2cc2nccnc12" only.
> 90 µM

----------
# test protocol: Cytotoxicity against human MT4 cells after 96 hrs by MTT assay
# Type: cell-based
test readout: CC50 at 96 h (µM)
Unit µM implied. Number only.

>  <line notation>
Oc1ccnc2c(Cl)c3nccnc3cc12

>  <test readout>
CC50 at 96 h

>  <endpoint value>
42

$$$$
>  <line notation>
c1cnc2cc3[nH]nnc3cc2c1

>  <test readout>
CC50 at 96 h

>  <endpoint value>
40

$$$$
>  <line notation>
Clc1c2ncccc2cc2nccnc12

>  <test readout>
CC50 at 96 h

>  <endpoint value>
82

$$$$
>  <line notation>
O=C(CCl)Cn1nnc2cc3cccnc3c(Cl)c21

>  <test readout>
CC50 at 96 h

>  <endpoint value>
23

$$$$
>  <line notation>
N#CCn1nnc2cc3cccnc3c(Cl)c21

>  <test readout>
CC50 at 96 h

>  <endpoint value>
100

$$$$

Then there is this compound:
Supply CC50 at 96 h value. Item: "CC(=O)n1nnc2c(Cl)c3ncccc3cc21"
46

----------
# System: Coxsackievirus B5
# test protocol: Antiviral activity against Human coxsackievirus B5 Ohio-1 infected in african green monkey Vero 76 cells assessed as reduction of virus-induced plaque formation after 3 days using crystal violet staining
# Format: functional, organism-based
# test conditions: Enterovirus B, Ohio-1, Vero, 72 h
test readout: EC50 (µM)
Use µM as the unit, but write only the number.

>  <line notation>
Clc1c2ncccc2cc2nc(C3CCCCC3)[nH]c12

>  <tgt>
Coxsackievirus B5

>  <unit label>
µM

>  <endpoint value>
43

$$$$
>  <line notation>
O=[N+]([O-])c1ccc(-c2nc3cc4cccnc4cc3[nH]2)cc1

>  <tgt>
Coxsackievirus B5

>  <unit label>
µM

>  <endpoint value>
35

$$$$

We next turn to a different compound, shown below.
Annotate the compound "Nc1ccc(-c2nc3cc4cccnc4c(Cl)c3[nH]2)cc1" with its measured EC50.
78

----------
# Tested on: Yellow fever virus
# test protocol: Antiviral activity against Yellow fever virus 17D Stamaril Pasteur J07B01 infected in hamster BHK21 cells assessed as inhibition of virus-induced cytopathogenicity after 3 to 4 days by MTT assay
# Assay type: functional, cell-based
# test conditions: Stamaril Pasteur J07B01, BHK-21
pEC50: −log10 of the molar value.
test readout: pEC50

Completed entries (count: 6):
>  <line notation>
Nc1ccc(-c2nc3cc4cccnc4c(Cl)c3[nH]2)cc1

>  <pEC50>
< 4.38

$$$$
>  <line notation>
c1ccc(-c2ccc(-c3nc4cc5cccnc5cc4[nH]3)cc2)cc1

>  <pEC50>
< 4.70

$$$$
>  <line notation>
c1ccc(-c2nc3cc4cccnc4cc3[nH]2)cc1

>  <pEC50>
< 4.40

$$$$
>  <line notation>
O=[N+]([O-])c1ccc(-c2nc3cc4cccnc4cc3[nH]2)c2ccccc12

>  <pEC50>
< 4.00

$$$$
>  <line notation>
O=c1[nH]c2c(Cl)c3ncccc3cc2nc1-c1ccccc1

>  <pEC50>
< 4.00

$$$$
>  <line notation>
O=[N+]([O-])c1c2cccnc2c(Cl)c2[nH]nnc12

>  <pEC50>
< 4.00

$$$$

Complete the entry with pEC50 for "Clc1c2ncccc2cc2nc(-c3ccccc3)c(-c3ccccc3)nc12"
< 4.00

Identify measured pEC50 associated with "O=[N+]([O-])c1ccc(-c2nc3cc4cccnc4c(Cl)c3[nH]2)cc1"
< 4.00

Supply recorded pEC50 for "N#CCn1nnc2cc3cccnc3c(Cl)c21" here.
< 4.00

Please list pEC50 recorded for the compound "Clc1c2ncccc2cc2nc(CBr)c(CBr)nc12"
< 4.00

Entry "Oc1ccnc2c(Cl)c3[nH]c(-c4ccccc4)nc3cc12" needs its pEC50 filled in; supply it.
< 4.12

----------
# test protocol: Cytotoxicity against BHK21 cells after 48 to 96 hrs by MTT assay
# Type: cell-based, Mesocricetus auratus, BHK-21
# test conditions: hamster
test readout: CC50

Solved entries (count: 3):
>  <molecule>
C[C@@]1(O)[C@H](O)[C@@H](CO)O[C@H]1n1ccc(N)nc1=O

>  <CC50>
> 100 µM

$$$$
>  <molecule>
CC(=O)n1nnc2c(Cl)c3ncccc3cc21

>  <CC50>
72 µM

$$$$
>  <molecule>
C[C@@]1(O)[C@H](O)[C@@H](CO)O[C@H]1n1cnc2c(=O)[nH]c(N)nc21

>  <CC50>
> 10 µM

$$$$

Determine from records and report CC50 for CCOC(=O)C(C)c1nc2c(Cl)c3ncccc3cc2[nH]c1=O (stereo unspecified)
75 µM

Note CC50 for the molecule shown: "Clc1c2ncccc2cc2nc(CBr)c(CBr)nc12"
> 100 µM
